system name: tetanus neurotoxin (TeNT), authentic tetanus holotoxin (Clostridium tetani, UniProt P04958 2-1315)
Sequence (P04958 2-457 limits assumed, chain 1 of 2): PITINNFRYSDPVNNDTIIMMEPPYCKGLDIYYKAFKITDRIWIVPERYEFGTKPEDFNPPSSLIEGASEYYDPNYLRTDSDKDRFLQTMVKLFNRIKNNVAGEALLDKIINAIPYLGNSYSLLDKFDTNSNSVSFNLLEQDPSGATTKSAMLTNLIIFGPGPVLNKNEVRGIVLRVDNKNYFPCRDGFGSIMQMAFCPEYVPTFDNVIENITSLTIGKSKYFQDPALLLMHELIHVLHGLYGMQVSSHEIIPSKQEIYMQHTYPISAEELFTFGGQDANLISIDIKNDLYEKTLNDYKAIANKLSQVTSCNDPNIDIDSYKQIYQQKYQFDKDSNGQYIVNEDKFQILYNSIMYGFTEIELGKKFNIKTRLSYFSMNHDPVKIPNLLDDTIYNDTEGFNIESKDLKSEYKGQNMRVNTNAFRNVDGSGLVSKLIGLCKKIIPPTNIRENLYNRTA
Sequence (P04958 458-1315 limits assumed, chain 2 of 2): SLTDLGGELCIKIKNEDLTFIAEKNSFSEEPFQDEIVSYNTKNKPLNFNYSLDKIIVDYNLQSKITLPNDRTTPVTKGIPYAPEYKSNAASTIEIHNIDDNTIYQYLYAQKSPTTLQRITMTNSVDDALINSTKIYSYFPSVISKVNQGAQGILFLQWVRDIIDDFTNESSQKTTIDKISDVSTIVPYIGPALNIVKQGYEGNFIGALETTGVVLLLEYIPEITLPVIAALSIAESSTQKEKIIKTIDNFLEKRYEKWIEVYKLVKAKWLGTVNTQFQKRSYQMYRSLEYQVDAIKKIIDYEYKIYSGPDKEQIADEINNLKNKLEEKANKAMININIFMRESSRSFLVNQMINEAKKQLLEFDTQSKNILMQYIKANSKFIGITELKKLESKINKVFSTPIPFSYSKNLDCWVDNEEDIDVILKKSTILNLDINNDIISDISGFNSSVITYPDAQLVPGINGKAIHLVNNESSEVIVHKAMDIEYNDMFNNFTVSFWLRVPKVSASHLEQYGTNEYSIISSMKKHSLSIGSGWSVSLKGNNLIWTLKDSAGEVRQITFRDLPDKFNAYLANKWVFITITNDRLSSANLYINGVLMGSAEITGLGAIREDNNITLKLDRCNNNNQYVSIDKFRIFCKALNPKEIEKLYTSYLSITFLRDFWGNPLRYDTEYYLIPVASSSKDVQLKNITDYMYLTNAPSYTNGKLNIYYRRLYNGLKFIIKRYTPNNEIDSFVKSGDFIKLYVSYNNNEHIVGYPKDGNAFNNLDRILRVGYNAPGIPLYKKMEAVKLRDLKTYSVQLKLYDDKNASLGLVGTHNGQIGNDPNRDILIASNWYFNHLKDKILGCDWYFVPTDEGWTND
assay protocol: competition ELISA on TeNT, binder biotinylated; competitor SVT16L; further: test concentration or dose not given here
measure name: % inhibition of binding

[ask] Fill in the blank: the reported % inhibition of binding of SVT08L (VHH) VHH: QVQLQESGGGSVQAGGSLRLSCTASEFSYNDYTIAWFRRAAGKGRVEDGEGVASITTSYDRAYDNRIHYGDSVKGRFTISRDNAKNTVYLQMTNLNPSDTAVYYCGLDITPPGGIGASLTEGFLFDYWGQGTQVTVSS is ____.
[reply] 8%

[ask] Requested read-out: % inhibition of binding. Entry: SVT15L (VHH) VHH: QVQLQESGGGLVQTGGSLRLSCRASGRAFANYHFGWFRQAPGKDREFVASISWKGGSTYYANFALGRFTSSVDRAESSVYLQMSGLTPEDTATYYCAAHDGGDWNYHTGMDYWGKGILVTVSS
[reply] 5%

[ask] Which value of % inhibition of binding has been reported for SVT34L (VHH) VHH: QVQLQESGGGLVQPGGSLRLSCAASGRTISSYAMGWFRQAPGKQREFVAAISRSGGNTYYTDSVKGRFIISRDNAKNTLYLQMNNLKPEETAVYYCAADPNLMYESKWKYRALEAWGQGTLVTVSS in the records?
[reply] 93%

[ask] Recorded % inhibition of binding for SVT13L (VHH) VHH: QVQLQESGGGLVQAGGSLRLSCAVSGTNFDDYAIGWFRQAPGKRREAVACISKTDGVTRYGNGVKGRFTISSDEARNTVFLQMNDLKDEDTAIYYCIGDFKSCGMGYKPIDHWGRGIQVTVSS , please?
[reply] 91%
